Experimental system: T1, human IL-4 (human, UniProt P05112 25-153, biotinylated in the receptor binding assay and on the Biacore chip)
T1 construct: also called interleukin-4; biotinylated IL-4
T1 sequence (looked up): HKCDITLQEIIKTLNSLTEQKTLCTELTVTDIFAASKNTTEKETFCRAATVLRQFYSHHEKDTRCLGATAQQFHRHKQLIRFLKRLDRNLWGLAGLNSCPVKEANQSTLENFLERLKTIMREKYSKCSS
Protocol description: DOM9 RBA (IL-4 RBA)
Can you tell me IC50 for the items I'm about to list?
Give the value in nM but do not write nM after it.

IC50 in this record for DOM9-112-210-ASTKGPS-DOM10-273 (bispecific antibody, in-line fusion, from pDOM5) EVQLLESGGGLVQPGGSLRLSCAASGFTFRNFGMGWVRQAPGKGLEWVSWIISSGTETYYADSVKGRFTISRDNSKNTLYLQMNSLRAEDTAVYYCAKSLGRFDYWGQGTLVTVSSASTKGPSEVQLLESGGGLVQPGGSLRLSCAASGFTFELEEMDWVRQAPGKGLEWVSSISGSGGSTYYADSVKGRFTISRDNSKNTLYLQMNSLRAEDTAVYYCAKAYTGFDYWGQGTLVTVSS : 10.5

Kindly note the recorded IC50 for DOM10-277-ASTKGPS-DOM9-155-78 (bispecific antibody, in-line fusion, from pDOM5) EVQLLESGGGLVQPGGSLRLSCAASGFTFSSYEMDWVRQAPGKGLEWVSTISADGVTTYYADSVKGRFTISRDNSKNTLYLQMNSLRAEDTAVYYCAKAFDAFDYWGQGTLVTVSSASTKGPSDIQMTQSPSSLSASVGDRVTITCRASRHIGDWLHWYQQKPGKAPKLLIAWASTLDSGVPSRFSGSGSGTDFTLTISSLQPEDFATYYCLQEGWGPPTFGQGTKVEIKR , which is 9.45

# IC50 of DOM10-273-ASTKGPS-DOM9-155-78 (bispecific antibody, in-line fusion, from pDOM5) EVQLLESGGGLVQPGGSLRLSCAASGFTFELEEMDWVRQAPGKGLEWVSSISGSGGSTYYADSVKGRFTISRDNSKNTLYLQMNSLRAEDTAVYYCAKAYTGFDYWGQGTLVTVSSASTKGPSDIQMTQSPSSLSASVGDRVTITCRASRHIGDWLHWYQQKPGKAPKLLIAWASTLDSGVPSRFSGSGSGTDFTLTISSLQPEDFATYYCLQEGWGPPTFGQGTKVEIKR = 2.25
